Reference for the values: ChEMBL document CHEMBL1138545

Test system: Escherichia coli
measurement.protocol: Antibacterial activity against Escherichia coli ATTC 25922 after 24 hrs by the disk diffusion method
Format: functional
measurement.setup: Escherichia coli, ATTC 25922, 24 h
metric: MIC (µg/mL)

INSERT INTO assay_data (chemical_string, numeric_result) VALUES
  ('CSc1ccc(Cc2nnc3sc(-c4ccc(O)cc4)nn23)cc1', 25);

(I) CSc1ccc(Cc2nnc3sc(-c4ccc(Cl)c(Cl)c4Cl)nn23)cc1
(II) CSc1ccc(Cc2nnc3sc(-c4ccc(-c5ccc(Cl)cc5)o4)nn23)cc1
stdin: Name the one with the greater MIC value, either I or II as given. Answer with the label corresponding to your selection.
stdout: I
